test system: NCI-H23 lung; assay: NCI tumour cell line growth inhibition, 48 h
Please provide measured log10 of TGI for the entries that follow.
Base-10 log of TGI, unit µM.

Q: Dear colleague, I am looking for the recorded log10 of TGI of the following compound: COc1nc(C#CC2CCCCC2)nc(OC)n1
Result: 0.93

Q: Recorded log10 of TGI of CC(C)(C)OC(=O)c1ccc(NCC2=C(Br)C(=O)C=CC2=O)cc1 , please.
Result: 1.70

Q: Entry COC(=O)c1c(-c2cccs2)oc(-c2cccs2)c1C(=O)OC : reported log10 of TGI = ?
Result: 1.99

Q: What does the data say about its log10 of TGI? Entry: Cc1ccc(N=C[N-]c2ccc(C)cc2)cc1.Cc1ccc(N=C[N-]c2ccc(C)cc2)cc1.O=C([O-])C(F)(F)F.O=C([O-])C(F)(F)F.[OH3+].[OH3+].[Rh+2].[Rh+2]
Result: 1.85

Q: Entry COc1ccc(-c2ccc(/C=N/n3c(COc4ccccc4Cl)nn(CN4CCOCC4)c3=S)o2)c([N+](=O)[O-])c1 : reported log10 of TGI = ?
Result: 1.80

Just for reference, PubChem BioAssay (NCI) is where these values come from.
